- SYSTEM_TESTED: WWP1 (Homo sapiens)
- Construct: GST-TEV (N, cleaved yes); made in house; host or cells: Escherichia coli BL21 (DE3)
- PROCEDURE_DETAILS: Naive Library Presenter Screening (phage, NGS), WWP1 (construct not given)
- Format: binding
- TEST_CONTEXT: WWP1 target concentration 300 nM
Numbered stars: 1 amine (or outer) side, 2 acyl side, 3 side chain; on linkers, the order of the positions; unused ones are H or OH. Bridge positions count the residues as written; N and C are the ends. Ends that are not written are not given here. Phenylene(1,4-NHCOCH2)2 = O=C(C[*:1])Nc1ccc(NC(=O)C[*:2])cc1
Respond with MET for interaction data at Target Concentration 300 values of 200 and above, NOT MET for values below.

DPALASCQQAAWVCEVL (linker 7-14 via Phenylene(1,4-NHCOCH2)2) : MET
DPAQLSCTVAAHVCHST (linker 7-14 via Phenylene(1,4-NHCOCH2)2; not fully specified (C-terminus)) : MET
DPARLDCTAAAYVCSVL (linker 7-14 via Phenylene(1,4-NHCOCH2)2) : NOT MET
DPATHVCTTAA VMCHQT (DPATHVCTTAAVMCHQT; not fully specified; cysteine pairing not given here) : MET
DPAWMACAWAANLCHSS (linker 7-14 via Phenylene(1,4-NHCOCH2)2) : NOT MET
DPAIIRCTSAAMMCHNT (linker 7-14 via Phenylene(1,4-NHCOCH2)2) : NOT MET
DPAIFDCEFAAHVCSVL (linker 7-14 via Phenylene(1,4-NHCOCH2)2) : MET
DPAFHYCTMAANMCHQD (linker 7-14 via Phenylene(1,4-NHCOCH2)2) : NOT MET
DPARWACTEAAHVCDTL (linker 7-14 via Phenylene(1,4-NHCOCH2)2) : NOT MET
DPAATLCNQAANVCALL (linker 7-14 via Phenylene(1,4-NHCOCH2)2) : NOT MET
DPAFLTCTLAASLCHQD (linker 7-14 via Phenylene(1,4-NHCOCH2)2) : NOT MET
DPAIQRCSTAAQVCRYL (linker 7-14 via Phenylene(1,4-NHCOCH2)2) : MET
DPAVRDCSDAAIVCELV (linker 7-14 via Phenylene(1,4-NHCOCH2)2) : NOT MET
DPAMIACSHAAQMCHWS (linker 7-14 via Phenylene(1,4-NHCOCH2)2) : MET
DPAMRRCHQAAWVCEVL (linker 7-14 via Phenylene(1,4-NHCOCH2)2) : NOT MET
DPAIMSCMYAAEVCRVL (linker 7-14 via Phenylene(1,4-NHCOCH2)2) : NOT MET
DPAWVSCVRAANLCHVS (linker 7-14 via Phenylene(1,4-NHCOCH2)2 (inferred); not fully specified (C-terminus)) : NOT MET
